System: FaDu
Assay: Cytotoxicity against human FADU cells after 96 hrs by sulforhodamine-B assay
Format: functional, cell-based
Give measured pEC50 for each item. Keep answers brief.
One number for each entry, as −log10 of the molar value.

CC(=O)O[C@@H]1C[C@]2(C)[C@H]3CC=C4[C@@H]5CC(C)(C)CC[C@]5(C(=O)N(CC(=O)NCc5ccccc5)Cc5ccoc5)CC[C@@]4(C)[C@]3(C)CC[C@H]2C(C)(C)[C@H]1OC(C)=O :: 4.85
CC(=O)O[C@H]1CC[C@]2(C)[C@H]3CC=C4[C@@H]5CC(C)(C)CC[C@]5(C(=O)N(CC(=O)NCc5ccccc5)C(C)C)CC[C@@]4(C)[C@]3(C)CC[C@H]2C1(C)C :: 5.00
CC(=O)O[C@H]1CC[C@]2(C)[C@H]3CC=C4[C@@H]5CC(C)(C)CC[C@]5(C(=O)N(CC(=O)NCc5ccccc5)Cc5ccccc5)CC[C@@]4(C)[C@]3(C)CC[C@H]2C1(C)C :: 4.69

# input for lookup
# input I am curious: what pEC50 value has been reported for "CCCCNC(=O)CN(Cc1ccoc1)C(=O)[C@]12CCC(C)(C)C[C@H]1C1=CC[C@@H]3[C@@]4(C)CC[C@H](OC(C)=O)C(C)(C)[C@@H]4CC[C@@]3(C)[C@]1(C)CC2" ?
# output 4.75

====

System: NIH3T3
Assay: Cytotoxicity against mouse NIH/3T3 cells after 96 hrs by sulforhodamine-B assay
Type: cell-based
Settings: NIH3T3, 96 h
OBSERVABLE: EC50 (µM)
One number for each entry, in µM.

CC(=O)O[C@H]1CC[C@]2(C)[C@H]3CC=C4[C@@H]5CC(C)(C)CC[C@]5(C(=O)N(CC(=O)NC(C)C)Cc5ccoc5)CC[C@@]4(C)[C@]3(C)CC[C@H]2C1(C)C :: 10.1
CC(=O)O[C@H]1CC[C@]2(C)[C@H]3CC=C4[C@@H]5CC(C)(C)CC[C@]5(C(=O)OCC(=O)NC(C)(C)C)CC[C@@]4(C)[C@]3(C)CC[C@H]2C1(C)C :: 20
CC(=O)O[C@H]1CC[C@]2(C)[C@H]3CC=C4[C@@H]5CC(C)(C)CC[C@]5(C(=O)N(CC(=O)NCc5ccccc5)C(C)C)CC[C@@]4(C)[C@]3(C)CC[C@H]2C1(C)C :: 10.2

Field: EC50. Fill in for each record below.
1. CC1(C)CC[C@]2(C(=O)O)CC[C@]3(C)C(=CC[C@@H]4[C@@]5(C)CC[C@H](O)C(C)(C)[C@@H]5CC[C@]43C)[C@@H]2C1
2. COC(=O)CNC(=O)CN(Cc1ccoc1)C(=O)[C@]12CCC(C)(C)C[C@H]1C1=CC[C@@H]3[C@@]4(C)CC[C@H](OC(C)=O)C(C)(C)[C@@H]4CC[C@@]3(C)[C@]1(C)CC2

# output
1. 57.9
2. 8.9

====

Assignment: determine reported EC50 for the given compounds.
System: NIH3T3
Assay: Cytotoxicity against mouse NIH/3T3 cells after 96 hrs by sulforhodamine-B assay
Format: cell-based
Conditions: NIH3T3, 96 h

C=CCN(CC(=O)NCCCC)C(=O)[C@]12CCC(C)(C)C[C@H]1C1=CC[C@@H]3[C@@]4(C)CC[C@H](O)C(C)(C)[C@@H]4CC[C@@]3(C)[C@]1(C)CC2 :: > 30 µM
CC1(C)CC[C@]2(C(=O)N(CC(=O)NC(C)(C)C)Cc3ccoc3)CC[C@]3(C)C(=CC[C@@H]4[C@@]5(C)CC[C@H](O)C(C)(C)[C@@H]5CC[C@]43C)[C@@H]2C1 :: 11.8 µM

We next turn to a different compound, shown below.
# input Given "CC(=O)O[C@H]1CC[C@]2(C)[C@H]3CC=C4[C@@H]5CC(C)(C)CC[C@]5(C(=O)N(CC(=O)NCc5ccccc5)Cc5ccoc5)CC[C@@]4(C)[C@]3(C)CC[C@H]2C1(C)C" , state its recorded EC50.
# output > 30 µM

====

Test system: NIH3T3
Experiment: Cytotoxicity against mouse NIH/3T3 cells after 96 hrs by sulforhodamine-B assay
Type: cell-based
Conditions: NIH3T3, 96 h
OBSERVABLE: pEC50
Answers are plain numbers, as −log10 of the molar value.

CC(=O)O[C@@H]1C[C@]2(C)[C@H]3CC=C4[C@@H]5CC(C)(C)CC[C@]5(C(=O)N(CC(=O)NCc5ccccc5)Cc5ccoc5)CC[C@@]4(C)[C@]3(C)CC[C@H]2C(C)(C)[C@H]1OC(C)=O :: 5.19

# input Hello, I am looking for reported pEC50 with NIH3T3 for "C=CCN(CC(=O)NC(C)(C)C)C(=O)[C@]12CCC(C)(C)C[C@H]1C1=CC[C@@H]3[C@@]4(C)C[C@@H](OC(C)=O)[C@H](OC(C)=O)C(C)(C)[C@@H]4CC[C@@]3(C)[C@]1(C)CC2" . Could you help?
# output 5.11

====

System: 518A2
Test: Cytotoxicity against human 518A2 cells after 96 hrs by sulforhodamine-B assay
Format: functional, cell-based
Details: 518A2, 96 h
OBSERVABLE: pEC50
Give bare numbers, as −log10 of the molar value.

CC(=O)O[C@@H]1C[C@]2(C)[C@H]3CC=C4[C@@H]5CC(C)(C)CC[C@]5(C(=O)N(CC(=O)NCc5ccccc5)Cc5ccccc5)CC[C@@]4(C)[C@]3(C)CC[C@H]2C(C)(C)[C@H]1OC(C)=O :: 5.92

Please go through the list and note pEC50 for each compound.
1. CC(=O)O[C@H]1CC[C@]2(C)[C@H]3CC=C4[C@@H]5CC(C)(C)CC[C@]5(C(=O)OCC(=O)NCc5ccccc5)CC[C@@]4(C)[C@]3(C)CC[C@H]2C1(C)C
2. CC(=O)O[C@@H]1C[C@]2(C)[C@H]3CC=C4[C@@H]5CC(C)(C)CC[C@]5(C(=O)N(CC(=O)NCc5ccccc5)Cc5ccoc5)CC[C@@]4(C)[C@]3(C)CC[C@H]2C(C)(C)[C@H]1OC(C)=O
3. CC(=O)O[C@H]1CC[C@]2(C)[C@H]3CC=C4[C@@H]5CC(C)(C)CC[C@]5(C(=O)N(CC(=O)NC(C)(C)C)Cc5ccccc5)CC[C@@]4(C)[C@]3(C)CC[C@H]2C1(C)C
4. C=CCN(CC(=O)NCc1ccccc1)C(=O)[C@]12CCC(C)(C)C[C@H]1C1=CC[C@@H]3[C@@]4(C)CC[C@H](OC(C)=O)C(C)(C)[C@@H]4CC[C@@]3(C)[C@]1(C)CC2
5. CN(CC(=O)NC(C)(C)C)C(=O)[C@]12CCC(C)(C)C[C@H]1C1=CC[C@@H]3[C@@]4(C)CC[C@H](O)C(C)(C)[C@@H]4CC[C@@]3(C)[C@]1(C)CC2
6. C=CCN(CC(=O)NCCCC)C(=O)[C@]12CCC(C)(C)C[C@H]1C1=CC[C@@H]3[C@@]4(C)CC[C@H](OC(C)=O)C(C)(C)[C@@H]4CC[C@@]3(C)[C@]1(C)CC2
7. C=CCN(CC(=O)NC(C)(C)C)C(=O)[C@]12CCC(C)(C)C[C@H]1C1=CC[C@@H]3[C@@]4(C)CC[C@H](O)C(C)(C)[C@@H]4CC[C@@]3(C)[C@]1(C)CC2

# output
1: 5.11; 2: 4.88; 3: 4.82; 4: 4.72; 5: 5.10; 6: 4.82; 7: 4.61

====

I'd appreciate it if you could supply EC50 values for the items below.
Test system: MCF7
Test: Cytotoxicity against human MCF7 cells after 96 hrs by sulforhodamine-B assay
Format: functional, cell-based
Details: MCF7, 96 h

CCCCNC(=O)CN(Cc1ccoc1)C(=O)[C@]12CCC(C)(C)C[C@H]1C1=CC[C@@H]3[C@@]4(C)CC[C@H](O)C(C)(C)[C@@H]4CC[C@@]3(C)[C@]1(C)CC2 :: 15.5 µM
CC(=O)O[C@H]1CC[C@]2(C)[C@H]3CC=C4[C@@H]5CC(C)(C)CC[C@]5(C(=O)OCC(=O)NCc5ccccc5)CC[C@@]4(C)[C@]3(C)CC[C@H]2C1(C)C :: 6.4 µM
C=CCN(CC(=O)NC(C)(C)C)C(=O)[C@]12CCC(C)(C)C[C@H]1C1=CC[C@@H]3[C@@]4(C)C[C@@H](OC(C)=O)[C@H](OC(C)=O)C(C)(C)[C@@H]4CC[C@@]3(C)[C@]1(C)CC2 :: 4.1 µM
CC(=O)O[C@H]1CC[C@]2(C)[C@H]3CC=C4[C@@H]5CC(C)(C)CC[C@]5(C(=O)N(CC(=O)NCc5ccccc5)Cc5ccoc5)CC[C@@]4(C)[C@]3(C)CC[C@H]2C1(C)C :: 15 µM
C=CCN(CC(=O)NCCCC)C(=O)[C@]12CCC(C)(C)C[C@H]1C1=CC[C@@H]3[C@@]4(C)CC[C@H](O)C(C)(C)[C@@H]4CC[C@@]3(C)[C@]1(C)CC2 :: 21.3 µM
CCCCN(CC(=O)NCc1ccccc1)C(=O)[C@]12CCC(C)(C)C[C@H]1C1=CC[C@@H]3[C@@]4(C)CC[C@H](O)C(C)(C)[C@@H]4CC[C@@]3(C)[C@]1(C)CC2 :: 24.6 µM
CC1(C)CC[C@]2(C(=O)O)CC[C@]3(C)C(=CC[C@@H]4[C@@]5(C)CC[C@H](O)C(C)(C)[C@@H]5CC[C@]43C)[C@@H]2C1 [OLEANOLIC_ACID] :: 49.1 µM
CC(=O)O[C@@H]1C[C@]2(C)[C@H]3CC=C4[C@@H]5CC(C)(C)CC[C@]5(C(=O)N(CC(=O)NC(C)(C)C)Cc5ccoc5)CC[C@@]4(C)[C@]3(C)CC[C@H]2C(C)(C)[C@H]1OC(C)=O :: 4 µM

Batch of 4 compounds: report EC50 for each.
1. CC(=O)O[C@H]1CC[C@]2(C)[C@H]3CC=C4[C@@H]5CC(C)(C)CC[C@]5(C(=O)N(C)CC(=O)NC(C)(C)C)CC[C@@]4(C)[C@]3(C)CC[C@H]2C1(C)C
2. C=CCN(CC(=O)NC(C)(C)C)C(=O)[C@]12CCC(C)(C)C[C@H]1C1=CC[C@@H]3[C@@]4(C)CC[C@H](OC(C)=O)C(C)(C)[C@@H]4CC[C@@]3(C)[C@]1(C)CC2
3. CC1(C)CC[C@]2(C(=O)O)CC[C@]3(C)C(=CC[C@@H]4[C@@]5(C)C[C@@H](O)[C@H](O)C(C)(C)[C@@H]5CC[C@]43C)[C@@H]2C1 [MASLINIC ACID]
4. CC(C)N(CC(=O)NCc1ccccc1)C(=O)[C@]12CCC(C)(C)C[C@H]1C1=CC[C@@H]3[C@@]4(C)CC[C@H](O)C(C)(C)[C@@H]4CC[C@@]3(C)[C@]1(C)CC2

# output
["5.7 µM", "12.1 µM", "37.2 µM", "19.4 µM"]
